Tested on: Streptococcus pneumoniae
Assay: Antibacterial activity against Streptococcus pneumoniae Mef S 3427
Format: functional
MEASURED_PROPERTY: MIC (µg/mL)
Numbers only, in µg/mL.

INPUT_SMILES | RECORDED_RESULT
C=C[C@]12OC(=O)N(CCN(C)Cc3cccc(-c4cccnc4)c3)[C@@H]1[C@@H](C)C(=O)[C@H](C)C[C@@](C)(OC)[C@H](O[C@@H]1O[C@H](C)C[C@H](N(C)C)[C@H]1O)[C@@H](C)C(=O)[C@@H](C)C(=O)O[C@@H]2CC | 0.1

Okay, next one:
Exam item: Give Streptococcus pneumoniae MIC for C=C[C@]12OC(=O)N(CCCCn3cnc4ncccc43)[C@@H]1[C@@H](C)C(=O)[C@H](C)C[C@@](C)(OC)[C@H](O[C@@H]1O[C@H](C)C[C@H](N(C)C)[C@H]1O)[C@@H](C)C(=O)[C@@H](C)C(=O)O[C@@H]2CC
Marked response: 0.2

----------
Kindly state MIC for each of the entries shown.
Test system: Streptococcus pneumoniae
Assay: Antibacterial activity against Streptococcus pneumoniae Mef S 3427
Format: functional
One number for each entry, in µg/mL.

INPUT_SMILES | UNIT_SYMBOL | RECORDED_RESULT
C=C[C@]12OC(=O)N(CCCCn3cnc(-c4ccc(F)nc4)c3)[C@@H]1[C@@H](C)C(=O)[C@H](C)C[C@@](C)(OC)[C@H](O[C@@H]1O[C@H](C)C[C@H](N(C)C)[C@H]1O)[C@@H](C)C(=O)[C@@H](C)C(=O)O[C@@H]2CC | µg/mL | 0.1
C=C[C@]12OC(=O)N(CCCCn3cnc(-c4cncnc4)c3)[C@@H]1[C@@H](C)C(=O)[C@H](C)C[C@@](C)(OC)[C@H](O[C@@H]1O[C@H](C)C[C@H](N(C)C)[C@H]1O)[C@@H](C)C(=O)[C@@H](C)C(=O)O[C@@H]2CC | µg/mL | 0.1
C=C[C@]12OC(=O)N(CCCCn3ccc4ncccc43)[C@@H]1[C@@H](C)C(=O)[C@H](C)C[C@@](C)(OC)[C@H](O[C@@H]1O[C@H](C)C[C@H](N(C)C)[C@H]1O)[C@@H](C)C(=O)[C@@H](C)C(=O)O[C@@H]2CC | µg/mL | 0.1

Working through the 6 molecules below one at a time, give MIC for each.
1. C=C[C@]12OC(=O)N(CCCCn3ccc4nc(C(C)=O)ccc43)[C@@H]1[C@@H](C)C(=O)[C@H](C)C[C@@](C)(OC)[C@H](O[C@@H]1O[C@H](C)C[C@H](N(C)C)[C@H]1O)[C@@H](C)C(=O)[C@@H](C)C(=O)O[C@@H]2CC
2. C=C[C@]12OC(=O)N(CCN(C)Cc3cnc(-c4cccnc4)s3)[C@@H]1[C@@H](C)C(=O)[C@H](C)C[C@@](C)(OC)[C@H](O[C@@H]1O[C@H](C)C[C@H](N(C)C)[C@H]1O)[C@@H](C)C(=O)[C@@H](C)C(=O)O[C@@H]2CC
3. C=C[C@]12OC(=O)N(CCCCn3cnc(-c4cnc(C)cn4)c3)[C@@H]1[C@@H](C)C(=O)[C@H](C)C[C@@](C)(OC)[C@H](O[C@@H]1O[C@H](C)C[C@H](N(C)C)[C@H]1O)[C@@H](C)C(=O)[C@@H](C)C(=O)O[C@@H]2CC
4. C=C[C@]12OC(=O)N(CCCCn3cnc4cccnc43)[C@@H]1[C@@H](C)C(=O)[C@H](C)C[C@@](C)(OC)[C@H](O[C@@H]1O[C@H](C)C[C@H](N(C)C)[C@H]1O)[C@@H](C)C(=O)[C@@H](C)C(=O)O[C@@H]2CC
5. C=C[C@]12OC(=O)N(CCCCn3cnc(-c4ccc(N(C)C)nc4)c3)[C@@H]1[C@@H](C)C(=O)[C@H](C)C[C@@](C)(OC)[C@H](O[C@@H]1O[C@H](C)C[C@H](N(C)C)[C@H]1O)[C@@H](C)C(=O)[C@@H](C)C(=O)O[C@@H]2CC
6. C=C[C@]12OC(=O)N(CCCCn3cc(Cl)c4ncccc43)[C@@H]1[C@@H](C)C(=O)[C@H](C)C[C@@](C)(OC)[C@H](O[C@@H]1O[C@H](C)C[C@H](N(C)C)[C@H]1O)[C@@H](C)C(=O)[C@@H](C)C(=O)O[C@@H]2CC

Marked response:
0.2
0.1
0.2
0.1
0.2
0.1

// each molecule listed below needs its MIC
1. C=C[C@]12OC(=O)N(CCCCn3cnc(-c4ccc(C)nc4)c3)[C@@H]1[C@@H](C)C(=O)[C@H](C)C[C@@](C)(OC)[C@H](O[C@@H]1O[C@H](C)C[C@H](N(C)C)[C@H]1O)[C@@H](C)C(=O)[C@@H](C)C(=O)O[C@@H]2CC
2. C=C[C@]12OC(=O)N(CCCCn3ccc4c(N)cccc43)[C@@H]1[C@@H](C)C(=O)[C@H](C)C[C@@](C)(OC)[C@H](O[C@@H]1O[C@H](C)C[C@H](N(C)C)[C@H]1O)[C@@H](C)C(=O)[C@@H](C)C(=O)O[C@@H]2CC

Marked response:
[0.2, 0.1]
